These entries and their values trace back to patent US20210087291A1.

Target: T1, human FolR2 ECD-AcTev-Fcknob-Avi tag + Fc hole, biotinylated monomeric Fc fusion (human, UniProt P0DOX5 223-449 = IgG part)
T1 construct: also called huFolR2; FolR2-Fc
Test: SPR ProteOn, Fab analyte;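 note: recombinant antigens immobilized, purified Fab two-fold dilutions injected in parallel channels, 200 s association and 600 s dissociation, buffer-only channel as in-line reference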
OBSERVED_PROPERTY: binding result

15A1 Fab (Fab, V domains shown) VH: QVQLVQSGAEVKKPGASVKVSCKASGYTFTSYYMHWVRQAPGQGLEWMGIINPSGGSTSYAQKFQGRVTMTRDTSTSTVYMELSSLRSEDTAVYYCARNYYIGVVTFDYWGQGTLVTVSS VL: QAVVTQEPSLTVSPGGTVTLTCGSSTGAVTTSNYANWVQEKPGQAFRGLIGGTNKRAPGTPARFSGSLLGGKAALTLSGAQPEDEAEYYCALWYSNLWVFGGGTKLTVL | no binding
21D1 Fab (Fab, V domains shown) VH: QVQLVQSGAEVKKPGASVKVSCKASGYTFTSYYMHWVRQAPGQGLEWMGIINPSGGSTSYAQKFQGRVTMTRDTSTSTVYMELSSLRSEDTAVYYCARNYYVGVSPFDYWGQGTLVTVSS VL: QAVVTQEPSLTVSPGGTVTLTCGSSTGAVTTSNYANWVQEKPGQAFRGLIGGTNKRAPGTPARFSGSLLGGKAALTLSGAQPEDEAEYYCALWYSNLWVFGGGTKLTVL | no binding
